Sourced from paper PMC12243159

Measurement record for hCA I (Homo sapiens, UniProt P00915); quantity recorded: Ki.
Reply with just the number (in µM).

// query # input compound: COCCOc1cc2ncnc(Nc3cccc(-c4cn(CCOCCOCCOCCOCCOCCC(=O)NCc5ccc(S(N)(=O)=O)cc5)nn4)c3)c2cc1OCCOC [compound 10a] ; wanted: its Ki
// result 0.903

// query # input compound: COCCOc1cc2ncnc(Nc3cccc(-c4cn(CCOCCOCCOCCNC(=S)Nc5ccc(S(N)(=O)=O)cc5)nn4)c3)c2cc1OCCOC ; wanted: its Ki
// result 3.14

// query # input compound: COCCOc1cc2ncnc(Nc3cccc(-c4cn(CCOCCOCCOCCNC(=O)Nc5cccc(S(N)(=O)=O)c5)nn4)c3)c2cc1OCCOC ; wanted: its Ki
// result 46.5

----------
# test target: hCA XII (Homo sapiens, UniProt O43570)
# Sequence (O43570 25-354): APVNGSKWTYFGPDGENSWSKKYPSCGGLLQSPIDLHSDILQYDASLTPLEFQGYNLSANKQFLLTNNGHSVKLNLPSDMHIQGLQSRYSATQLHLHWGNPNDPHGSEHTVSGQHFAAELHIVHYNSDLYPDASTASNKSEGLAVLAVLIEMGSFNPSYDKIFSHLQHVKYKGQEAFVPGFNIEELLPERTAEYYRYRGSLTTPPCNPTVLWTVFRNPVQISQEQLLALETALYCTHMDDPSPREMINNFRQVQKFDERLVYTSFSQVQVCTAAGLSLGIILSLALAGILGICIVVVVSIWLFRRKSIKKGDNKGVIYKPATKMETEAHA
# assay explanation: stopped-flow CO2 hydration assay, hCA XII
# Type: biochemical
# conditions used: ratio of KI hCA I to KI hCA XII
Consider the following compounds and their measured SI I/XII readings.
No unit in the answer, only the number.

// below: answered compounds
compound	test target	SI I/XII
COCCOc1cc2ncnc(Nc3cccc(-c4cn(CCOCCOCCOCCNC(=O)Nc5ccc(S(N)(=O)=O)cc5)nn4)c3)c2cc1OCCOC [compound 7b]	hCA XII (Homo sapiens, UniProt O43570)	628
COCCOc1cc2ncnc(Nc3cccc(-c4cn(CCOCCOCCOCCOCCOCCNC(=S)Nc5ccc(S(N)(=O)=O)cc5)nn4)c3)c2cc1OCCOC [compound 14b]	hCA XII (Homo sapiens, UniProt O43570)	28.4
COCCOc1cc2ncnc(Nc3cccc(-c4cn(CCOCCOCCOCCNC(=S)Nc5ccc(S(N)(=O)=O)c(C)c5Br)nn4)c3)c2cc1OCCOC [compound 9]	hCA XII (Homo sapiens, UniProt O43570)	70.3

Now look at this one.
// query # input compound: COCCOc1cc2ncnc(Nc3cccc(-c4cn(CCOCCOCCOCCNC(=S)Nc5cccc(S(N)(=O)=O)c5)nn4)c3)c2cc1OCCOC [compound 8a] ; wanted: its SI I/XII
// result 636

----------
# test target: hCA I (Homo sapiens, UniProt P00915)
# Sequence (P00915 whole entry): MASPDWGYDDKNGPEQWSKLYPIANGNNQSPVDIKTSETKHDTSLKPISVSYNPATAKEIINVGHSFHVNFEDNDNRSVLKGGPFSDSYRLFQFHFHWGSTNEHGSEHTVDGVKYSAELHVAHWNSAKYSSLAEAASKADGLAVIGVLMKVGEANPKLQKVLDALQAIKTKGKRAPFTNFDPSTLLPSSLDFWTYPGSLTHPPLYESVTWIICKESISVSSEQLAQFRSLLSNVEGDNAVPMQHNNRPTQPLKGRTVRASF
Consider the following molecules and their measured Ki readings.
Reply with just the number (in µM).

molecule	Ki, µM
COCCOc1cc2ncnc(Nc3cccc(-c4cn(CCOCCOCCOCCNC(=S)NCCc5ccc(S(N)(=O)=O)cc5)nn4)c3)c2cc1OCCOC [compound 8d]	0.923
COCCOc1cc2ncnc(Nc3cccc(-c4cn(CCOCCOCCOCCOCCOCCNC(=O)Nc5cccc(S(N)(=O)=O)c5)nn4)c3)c2cc1OCCOC [compound 12a]	70.1
COCCOc1cc2ncnc(Nc3cccc(-c4cn(CCOCCOCCOCCNC(=S)Nc5ccc(S(N)(=O)=O)c(C)c5Br)nn4)c3)c2cc1OCCOC [compound 9]	4.91
COCCOc1cc2ncnc(Nc3cccc(-c4cn(CCOCCOCCOCCOCCOCCNC(=S)NCc5ccc(S(N)(=O)=O)cc5)nn4)c3)c2cc1OCCOC [compound 14c]	4.98

// query Request - read-out Ki | tested on hCA I (Homo sapiens, UniProt P00915) | molecule COCCOc1cc2ncnc(Nc3cccc(-c4cn(CCOCCOCCOCCOCCOCCC(=O)NCCOc5ccc6oc(=O)ccc6c5)nn4)c3)c2cc1OCCOC [compound 11]
// result 70.1

// query Request - read-out Ki | tested on hCA I (Homo sapiens, UniProt P00915) | molecule COCCOc1cc2ncnc(Nc3cccc(-c4cn(CCOCCOCCOCCOCCOCCNC(=O)NCc5ccc(S(N)(=O)=O)cc5)nn4)c3)c2cc1OCCOC [compound 12c]
// result 0.16
